# System: RXF 393 renal
# PROCEDURE DETAILS: NCI-60 one-dose screen, 48 h
# MEASUREMENT CONDITIONS: 10 µM unless noted
# Experimental: Cells are grown in 96 well plates and exposed to the test compound for 48 hours. Compounds are tested at a single concentration, which is 10^-5 M for most compounds. The reported endpoint is percent growth (GI% or GIPRCNT), where numbers from 0 - 100% represent growth inhibition, and numbers from -100% - 0 represent cell death. For example, a value of 40 represents 60% growth inhibition. A value of 0 means no net growth occurred over the course of the experiment. […]
This is part of a sample that, as a whole, favours compounds with a hit. Of some 83,000 tested, about 20% had one in any assay. Activity calls are given as the source filed them. The calls were made as follows: active = growth percent below 10; inactive = the rest.
Outcomes: true (1) for active, false (0) for inactive

>>> class_name("CCc1cccc2c3c(sc12)C(c1ccc(F)cc1)C(C#N)=C(N)O3 (stereo not given)")
"true (1)"
>>> class_name("O=C(O)C(c1ccccc1)N1C(=O)CSC1=S (stereo not given)")
"false (0)"
>>> class_name("CNC(=O)c1[nH]cc(-c2ccccc2)c1-c1cc(OC)c2c(c1OC)OCO2")
"false (0)"
>>> class_name("O=C1CN(CCN2CC(=O)N(Cc3ccccc3)C(=O)C2)CC(=O)N1Cc1ccccc1")
"false (0)"
>>> class_name("C[C@H](C(=O)Nc1ccc(S(N)(=O)=O)cc1)S(=O)(=O)c1ccccc1")
"false (0)"
>>> class_name("COc1cc(C(=O)c2cnc(-c3c[nH]c4cccc(C)c34)[nH]2)cc(OC)c1OC")
"false (0)"
>>> class_name("CS(=O)(=O)N(c1cc(-c2ccc3ncnc(Nc4ccc(F)c(Cl)c4)c3c2)cnc1Cl)S(C)(=O)=O")
"true (1)"
>>> class_name("C=CCNc1ccc2c3c(cccc13)C(=O)N(N1C(=O)c3cccc4cccc(c34)C1=O)C2=O")
"false (0)"
>>> class_name("O=C(N/N=C/c1c(Cl)cccc1Cl)c1ccc(C(F)(F)F)nc1Nc1cccc(C(F)(F)F)c1")
"false (0)"
>>> class_name("COc1ccc(C(=O)/C=C/c2sc(Cl)nc2Cl)cc1")
"false (0)"
>>> class_name("S=C(c1cccs1)N1CCN(c2cccc(Cl)c2)CC1")
"false (0)"
>>> class_name("CC1Cc2c(ncn3c(-c4ccc(F)cc4)nnc23)N(C)c2ccccc21 (stereo not given)")
"false (0)"
>>> class_name("CC1=C(C)C(=O)C(Nc2cccc(C(=O)OC(C)(C)C)c2)=C(Br)C1=O")
"false (0)"
>>> class_name("Cc1cccc(OCC(O)CN2CCN(c3ccc(Cl)cc3)CC2)c1 (stereo not given)")
"false (0)"
>>> class_name("Cc1c(C(=O)NCCN2CCOCC2)cn2ncnc(Oc3ccc(NC(=O)Nc4ccc(Cl)c(C(F)(F)F)c4)cc3)c12")
"true (1)"
>>> class_name("CC(C)n1cnc2c(Nc3cccc(Cl)c3)nc(N[C@H]3CCCC[C@@H]3N)nc21")
"false (0)"
>>> class_name("CC1=C(SCCC(=O)OC(C[Se]C2=C(C)C(=O)c3ccccc3C2=O)C(=O)NC(C)(C)C)C(=O)c2ccccc2C1=O (stereo not given)")
"true (1)"
>>> class_name("Nc1nc(Cl)cc(=O)n1Cc1ccccc1")
"false (0)"
>>> class_name("COC(=O)CCC/C=C\\C[C@H]1C=CC(=O)/C1=C/C[C@@H](O)CCc1cccc(C(F)(F)F)c1")
"true (1)"
>>> class_name("C#C[C@]1(O)CC[C@H]2[C@@H]3CC=C4c5sc(Nc6ccccc6)nc5CC[C@]4(C)[C@H]3CC[C@@]21C")
"true (1)"

----------
# System: NCI/ADR-RES ovarian
# PROCEDURE DETAILS: NCI-60 one-dose screen, 48 h (100 = growth as untreated, 0 = no growth, -100 = all killed)
# MEASUREMENT CONDITIONS: 10 µM unless noted
# Description: Growth inhibition of the NCI/ADR-RES human […] tumor cell line is measured as a screen for anti-cancer activity. Cells are grown in 96 well plates and exposed to the test compound for 48 hours. Compounds are tested at a single concentration, which is 10^-5 M for most compounds. The reported endpoint is percent growth (GI% or GIPRCNT), where numbers from 0 - 100% represent growth inhibition, and numbers from -100% - 0 represent cell death. For example, a value of 40 represents 60% growth inhibition. […]
Compounds without any hit were thinned out: in the full panel of roughly 83,000, 20% have a hit.
Note to self: values exactly at 40% are True. So growth at or above 40% is True, below is False.

>>> class_name("COc1cc(C2CC(c3ccc(SC)cc3)=NN2C(C)=O)cc(OC)c1OC (configuration not stated)")
"False"
>>> class_name("CCOC(=O)c1sc2ncc(-c3ccc(C)cc3)n2c1C")
"True"
>>> class_name("CCCCCCCCCCCCCCCCCCOc1ccc(CC(=O)OCC[N+](C)(C)C)cc1")
"True"
>>> class_name("COc1cc(C(=O)/C=C/c2c(Cl)nc3sccn23)cc(OC)c1OC")
"True"
>>> class_name("N#Cc1c(-c2ccc(Cl)cc2)nc(NCCO)[nH]c1=O")
"True"
>>> class_name("CCN(CC)CCCNc1nc2ccccc2c2c(=O)c3cc(Cl)ccc3sc12")
"True"
>>> class_name("COc1ccc(-c2nn(C(=O)c3cc(OC)c(OC)c(OC)c3)c3cc(N)ccc23)cc1")
"False"
>>> class_name("CCOC(=O)c1c(C)nc2c(c1N)CC(=O)N2Cc1ccc(F)cc1")
"True"
>>> class_name("S=c1nc(-c2ccccc2)oc(=NC2CCCCC2)n1C1CCCCC1")
"False"
>>> class_name("COc1ccc(CN2c3ccccc3Sc3ccccc32)c(F)c1")
"False"
>>> class_name("c1ccc(-c2nc3sc(-c4ccccc4)cn3n2)cc1")
"True"
>>> class_name("O=C1/C(=C/c2ccccc2[N+](=O)[O-])Oc2ccc(O)c(O)c21")
"False"
>>> class_name("Fc1cc(-c2nnc3sc(-c4ccc(Cl)cc4Cl)nn23)c(Cl)cc1Cl")
"True"
>>> class_name("O=C(CCCCCCSc1nc(-c2ccccc2)cc(-c2ccccc2)n1)NO")
"False"
>>> class_name("Nc1ccccc1-c1cc2c(c3c1[nH]c1ccccc13)CCCCC2")
"True"
>>> class_name("CCOC(=O)/C=C1\\S/C(=N\\Nc2ccc([N+](=O)[O-])cc2[N+](=O)[O-])N(Cc2ccccc2)C1=O")
"True"
>>> class_name("COc1ccc(C2C(N)=NNC2c2cccc(O)c2)cc1 (configuration not stated)")
"True"
>>> class_name("CCCCCCNC(=O)Oc1ccc(/C(=C(\\C)c2ccc(Cl)cc2)c2ccc(OCCCN(C)C)cc2)cc1")
"True"
>>> class_name("O=C1c2ccccc2NC(n2sc3ccccc3c2=O)N1c1ccccc1 (configuration not stated)")
"True"
>>> class_name("COc1cc(Nc2nc(NCCN)nc3cc[nH]c(=O)c23)cc(OC)c1")
"True"
>>> class_name("C=CCNc1ccc2c3c(cccc13)C(=O)N(N1C(=O)c3cccc4cccc(c34)C1=O)C2=O")
"True"
>>> class_name("N#C/C(=C\\c1ccc(F)cc1)n1nc2cccc(F)c2n1")
"False"

----------
# Test system: HCT-116 colon
# PROCEDURE DETAILS: NCI-60 one-dose screen, 48 h (100 = growth as untreated, 0 = no growth, -100 = all killed)
# MEASUREMENT CONDITIONS: 10 µM unless noted
The panel holds about 83,000 compounds, 20% with a hit somewhere; the sample as a whole holds those more often.
The threshold is 90%. Values of growth beneath it are tagged true (1); values meeting or exceeding it are tagged false (0).

>>> class_name("O=C1COCCN1c1ccc(NCc2cn(C(=O)c3ccc(Cl)cc3)c3ccccc23)cc1")
"true (1)"
>>> class_name("Cc1nc2nc(SCC(=O)O)[nH]c2c(=O)[nH]1")
"false (0)"
>>> class_name("COc1ccc(C(Cc2ccccc2)NCCN2CCOCC2)cc1 (stereo not given)")
"false (0)"
>>> class_name("COc1cccc(-c2nc(-c3ccc(NC(=O)OC(C)C)cc3)[nH]c2-c2ccnc(Br)c2)c1")
"true (1)"
>>> class_name("COc1ccc2nc(NC(=O)c3cccnc3Nc3ccc(S(N)(=O)=O)cc3)sc2c1")
"false (0)"

----------
# Tested on: OVCAR-5 ovarian
# PROCEDURE DETAILS: NCI-60 one-dose screen, 48 h (100 = growth as untreated, 0 = no growth, -100 = all killed)
# MEASUREMENT CONDITIONS: 10 µM unless noted
Compounds without any hit were thinned out: in the full panel of roughly 83,000, 20% have a hit.
Label NO if growth falls below 70%; label YES in every other case.

>>> class_name("Oc1ccc(Cl)cc1Cc1cc(Cl)cc(Cl)c1O")
"YES"
>>> class_name("COc1ccc(C2=Nn3c(nnc3-c3cc(Cl)cc(Cl)c3Cl)SC2)cc1")
"NO"
>>> class_name("Cn1cc(-c2cc3ncnc(Nc4ccc(CC(=O)Nc5cc(C(C)(C)C)on5)cc4)c3s2)cn1")
"NO"
>>> class_name("COc1cc2cc(Oc3ccc(NC(=O)Nc4cccc(C(F)(F)F)c4)cc3)c(C)nc2cc1OCCN1CCOCC1")
"YES"
>>> class_name("COc1cc(C(=O)/C=C/c2c(Cl)nc3sccn23)cc(OC)c1OC")
"YES"
>>> class_name("CN1CCN(CC(=O)N2c3cccc4cccc(c34)N(C(=O)CN3CCN(C)CC3)C2c2cn(-c3ccccc3)nc2-c2cccc([N+](=O)[O-])c2)CC1")
"NO"
>>> class_name("CCOC(=O)c1c2c(n(-c3ccc(C#N)cc3)c1-c1ccccc1)C=CCC2")
"YES"
>>> class_name("NC1=C(c2nn[nH]n2)C(c2ccccc2Cl)c2ccc3ccccc3c2O1 (stereo not given)")
"YES"
>>> class_name("COc1ccc(CNC(=O)C(=O)[C@H](Cc2ccccc2)NC(=O)c2[nH]c3ccccc3c(=O)c2C)cc1")
"YES"
>>> class_name("COc1ccc(N)c(N)c1")
"YES"
>>> class_name("CCOC(=O)Cn1c(C)c(/C=N/NC(=O)c2cc3c(ccc4ccccc43)o2)c2ccccc21")
"NO"
>>> class_name("COc1nc2ccc(C)cc2cc1-c1nc2c(cnn2-c2ccc(Br)cc2)c(=O)[nH]1")
"YES"
>>> class_name("O=c1[nH][n+](-c2ccc(Br)cc2)no1")
"YES"
>>> class_name("COc1ccc(S(=O)(=O)n2cc(C3OC(c4cc(OC)c(OC)c(OC)c4)=NN3C(C)=O)c3ccccc32)cc1OC (stereo not given)")
"YES"
>>> class_name("COc1ccc2c(c1)c(-c1nn3cc(-c4cccs4)nc3s1)cn2C")
"NO"
>>> class_name("CCCCCCN1C(=O)/C(=c2\\sc3n(c2=O)C2C(NN=3)N(CC)C(=O)N2CC)c2ccccc21 (stereo not given)")
"NO"
>>> class_name("O=C1NC(=O)C(Cn2cnc3ccccc32)N1 (stereo not given)")
"YES"
>>> class_name("CN(C)CCN1CCN(c2ncccc2C2Nc3ccccc3-n3cccc32)CC1 (stereo not given)")
"YES"
>>> class_name("COc1nc2ccccc2cc1-c1nc2c(cnn2-c2ccc(Br)cc2)c(=O)[nH]1")
"NO"
>>> class_name("O=[N+]([O-])c1ccc(Cl)c(-c2cc(CCCCO)on2)c1")
"YES"
>>> class_name("COc1ccc(-n2c(N)c(-c3nc4ccccc4[nH]3)cc(C#N)c2=O)cc1")
"YES"
>>> class_name("Cc1ccc(/C=N\\NC(=O)c2[nH]c3ccc(F)cc3c2-c2ccccc2)cc1")
"NO"
>>> class_name("CCCCCCn1c(-c2ccc(C(=O)O/N=C(\\N)c3ccc(OC)cc3)cc2)nc(-c2ccccc2)c1-c1ccccc1")
"NO"
>>> class_name("C=C1C(=O)O[C@H]2[C@H]1CC/C(COC(=O)CCC(=O)NCCOCCOCC(=O)Nc1ccc(OC)c(C(N)=O)c1O)=C\\CC[C@@]1(C)O[C@@H]21")
"YES"
>>> class_name("CCOC(=O)c1sc2ncc(-c3ccc(OC)cc3)n2c1C")
"YES"
>>> class_name("COc1ccc(C2CC(c3ccc(Nc4ccnc5cc(Cl)ccc45)cc3)=NN2C=O)cc1 (stereo not given)")
"YES"
>>> class_name("O=C1/C(=C/c2ccccc2[N+](=O)[O-])Oc2ccc(O)c(O)c21")
"NO"
>>> class_name("O=C1c2ccccc2NC(n2sc3ccccc3c2=O)N1c1ccccc1 (stereo not given)")
"YES"
>>> class_name("Cc1cc(Cl)ccc1NS(=O)(=O)c1ccc(-c2cnc(C3CC3)o2)cc1")
"NO"
>>> class_name("Cc1ccc(-c2nc(N3CCN(C(=O)c4ccc(OC(F)(F)F)cc4)CC3)c3ccccc3n2)cc1")
"YES"
>>> class_name("COc1ccc2c(c1)nc(NNC(=O)c1cnccn1)c1cccn12")
"NO"
>>> class_name("CCOC(=O)CC1C(COC(=O)NC)OC(n2cnc3c(NC(=O)Nc4ccccc4)ncnc32)C1O[Si](C)(C)C(C)(C)C (stereo not given)")
"YES"
>>> class_name("CSc1nc2ccc(C)cc2cc1/C=N/O")
"YES"
>>> class_name("[O-][n+]1c2ccccc2[n+]([O-])c2c3ccccc3[nH]c21")
"NO"
>>> class_name("Cc1nn(-c2ccccc2)c2c1N=c1s/c(=C\\c3ccc(C(F)(F)F)cc3)c(=O)n1CN2")
"YES"
>>> class_name("C[N+]1=C(/C=C/c2ccc(O)c3ncccc23)C(C)(C)c2ccccc21")
"NO"
>>> class_name("c1ccc(-c2nc3sc(-c4ccccc4)cn3n2)cc1")
"YES"
>>> class_name("COc1ccc(C(=O)/C=C/c2sc(Cl)nc2Cl)cc1")
"NO"
>>> class_name("Cc1ccc(C2CC(c3ccc(Nc4ccnc5cc(Cl)ccc45)cc3)=NN2C=O)cc1 (stereo not given)")
"YES"

meta.source: PubChem BioAssay (NCI)
